# Tested on: Fibroblast
# ASSAY_COMMENT: Multiplex assay against human fibroblast
# Assay type: toxicity, cell-based
# SETUP_CONDITIONS: 12 h, 10 µM, compound concentration 10 uM, replicate 2
Consider the cut-off 70. If the recorded Total Cell Count is strictly smaller, the label is criterion met; if not, the label is criterion not met.

## Task Lab note: Total Cell Count threshold 70. Does this compound come in strictly under it? CN1C(=O)[C@@H](NC(=O)c2cc3ccccc3[nH]2)N=C(c2ccccc2)c2ccccc21 [DEVAZEPIDE]
## Result criterion met

## Task Proceed to `CCCc1cc(C)[nH]c(=O)c1CNC(=O)c1cc(-c2ccc(N3CCN(C(C)C)CC3)nc2)cc2c1cnn2C(C)C`
## Result criterion met

## Task Same for `Cc1ccc(S(=O)(=O)NC2c3ccccc3Oc3ccccc32)cc1`
## Result criterion not met

## Task // repeat for N#CCNC(=O)c1ccc(-c2ccnc(Nc3ccc(N4CCOCC4)cc3)n2)cc1 [MOMELOTINIB] and report
## Result criterion met

## Task Also need `C=CC(=O)Nc1cc(-n2c(=O)ccc3cnc4ccc(-c5ccc(NS(C)(=O)=O)cc5)cc4c32)ccc1C` , thanks.
## Result criterion met

## Task And then CC[C@@]1(O)C(=O)OCc2c1cc1n(c2=O)Cc2cc3ccccc3nc2-1 [CAMPTOTHECIN] , what is it?
## Result criterion not met

* * *

# Tested on: HEK-293T
# ASSAY_COMMENT: Incucyte cell viability with HEK293T; further: filed as whole numbers so only -1 and 0 and 1 occur
# Format: toxicity, cell-based
# SETUP_CONDITIONS: human, 24 h, 10 µM, compound concentration 10 uM, replicate number 1, timepoint 24 hours
Would you mind telling me the reported Growth Rate of each entry?
Give a plain numeric answer without units written out.

## Task Can you share its Growth Rate? I mean this compound: `Cc1cc(OCC(=O)O)cc(C)c1Cc1ccc(O)c(C(C)C)c1`
## Result 0

## Task Same again, this time with `COc1ccc(Br)cc1S(=O)(=O)NC(=O)/C=C/c1ccccc1Cc1ccc2ccccc2c1`
## Result 0

## Task And what about the compound `Cc1c(Nc2ccc(S(=O)(=O)N3CCN(C)CC3)cc2F)nc2ccc(-c3cnn(C4CC4)c3)cn2c1=O` ?
## Result 1

## Task Thanks! And CN(C)CCCN1c2ccccc2CCc2ccccc21.Cl [IMIPRAMINE HYDROCHLORIDE] ?
## Result 0

## Task Okay, and `NC(=O)c1ccc2nc(-c3ccc(C4(N)CCC4)cc3)c(-c3ccccc3)n2n1` ?
## Result 0

## Task Then this compound: O=C1c2ccc(Nc3ccc(F)cc3F)cc2CCc2ccc(OC[C@H](O)CO)cc21 [Skepinone-L]
## Result 1

## Task Subsequent entry: `CC(C)(C)c1ccc(C(=O)Nc2cn3cc(-n4ccnc4)ccc3n2)cc1.Cl.Cl`
## Result 0

## Task What do we get for `Cc1c(F)cccc1NC(=O)Nc1ccc(Cl)c(S(=O)(=O)[C@H]2CCCNC2)c1O` ?
## Result 0

## Task Similarly, `Cn1cc(Cl)c2c(Oc3c(F)cc(Nc4cc(Cl)nc(N)n4)cc3F)ccnc21` ?
## Result 1

## Task // same read-out, input: `Cc1c(Nc2ccc(S(=O)(=O)N3CCN(C)CC3)cc2F)nc2ccc(Nc3cnn(C4CC4)c3)cn2c1=O`
## Result 0

## Task Then `CC[C@@H]1C(=O)N(C)c2cnc(Nc3ccc(C(=O)N[C@H]4CC[C@H](N5CCN(CC6CC6)CC5)CC4)cc3OC)nc2N1C(C)C` ?
## Result 0

## Task Now try `CC(C)C[C@H](NC(=O)N1CCCCCC1)C(=O)N[C@H](Cc1cn(C)c2ccccc12)C(=O)N[C@H](Cc1ccccn1)C(=O)O` .
## Result 1

## Task Let us now turn to `COc1cc(N2CCC(O)CC2)ccc1Nc1cc(Nc2ccccc2S(=O)(=O)C(C)C)c2cc[nH]c2n1`
## Result 0

## Task How about CN1C(=O)[C@@H](NC(=O)c2cc3ccccc3[nH]2)N=C(c2ccccc2)c2ccccc21 [DEVAZEPIDE] ?
## Result 0

## Task Param item: `CCc1cc(Nc2nccc(-c3c(-c4ccc(OC)c(C(=O)Nc5c(F)cccc5F)c4)nc4ccccn34)n2)c(OC)cc1N1CCC(N2CCN(S(C)(=O)=O)CC2)CC1`
## Result 0

## Task And the next one, `CC(C)[C@H](CO)Nc1nc(Nc2cccc(Cl)c2)c2ncn(C(C)C)c2n1` ?
## Result 0

* * *

# System: Fibroblast
# ASSAY_COMMENT: Multiplex assay against human fibroblast
# Type: toxicity, cell-based
# SETUP_CONDITIONS: 12 h, 10 µM, compound concentration 10 uM, replicate 1
METRIC_NAME: Population Fragmented Nuclei (%)
Write down the numeric answer in % and omit the unit.

## Task May I ask what Population Fragmented Nuclei (%) has been recorded for `CC(C)c1cc(Nc2nc(N3CCC[C@H](N)C3)ncc2C(N)=O)cc(C(C)C)n1` ?
## Result 30

## Task Consider next the compound `CC[C@H](Nc1ncnc2[nH]cnc12)c1nc2cccc(F)c2c(=O)n1-c1ccccc1` in the same way.
## Result 26

## Task Query `N#CCNC(=O)c1ccc(-c2ccnc(Nc3ccc(N4CCOCC4)cc3)n2)cc1` next
## Result 40

## Task Input `CCOC(=O)CCNc1cc(N2CCc3ccccc3CC2)nc(-c2ccccn2)n1`
## Result 29

## Task Further, for `CC[C@@H]1C(=O)N(C)c2cnc(Nc3ccc(C(=O)NC4CCN(C)CC4)cc3OC)nc2N1C1CCCC1` ?
## Result 38

## Task # repeat for `c1ccc(-c2oc3ncnc(NC[C@@H]4CCCO4)c3c2-c2ccccc2)cc1`
## Result 20

## Task Follow-up entry: `Cc1ccc(NC(=O)Nc2cc(C(F)(F)F)ccc2F)cc1Nc1ccc2c(c1)NC(=O)/C2=C\c1ccc[nH]1`
## Result 15

## Task Also `CCOc1ccn(-c2ccc(F)cc2)c(=O)c1C(=O)Nc1ccc(Oc2ccnc(N)c2Cl)c(F)c1` , if possible.
## Result 27

* * *

# System: Fibroblast
# ASSAY_COMMENT: Multiplex assay against human fibroblast
# Format: toxicity, cell-based
# SETUP_CONDITIONS: 12 h, 10 µM, compound concentration 10 uM, replicate 2
Decision: Population Hoechst High Intensity Objects (%) >= 9% yields yes (1), all other cases yield no (0).

## Task Assess whether reported Population Hoechst High Intensity Objects (%) for `Cc1ccc(S(=O)(=O)NC2c3ccccc3Oc3ccccc32)cc1` sits at 9% or higher.
## Result no (0)

## Task What do we get for `Cc1c(P(=S)(c2ccccc2)c2ccccc2)n2ccccc2[n+]1C/C=C/c1ccccc1.[Br-]` ?
## Result no (0)

## Task Do the same for `Cc1c(Nc2ccc(S(=O)(=O)N3CCN(C)CC3)cc2F)nc2ccc(Nc3cnn(C4CC4)c3)cn2c1=O` please
## Result yes (1)

## Task Try `Cl.NC[C@@H]1O[C@H](C23CC4CC(CC(C4)C2)C3)Cc2c1ccc(O)c2O` next.
## Result yes (1)

## Task And CC[C@@]1(O)C(=O)OCc2c1cc1n(c2=O)Cc2cc3ccccc3nc2-1 [CAMPTOTHECIN] ?
## Result yes (1)

## Task Would you kindly repeat that for `CCCCN(CC)c1nc(C)nc2c1c(C)cn2-c1c(C)cc(C)cc1C.Cl` ?
## Result no (0)

## Task Lookup CCOc1ccn(-c2ccc(F)cc2)c(=O)c1C(=O)Nc1ccc(Oc2ccnc(N)c2Cl)c(F)c1 [BMS-777607]
## Result yes (1)

* * *

# Test system: HEK-293T
# ASSAY_COMMENT: Multiplex assay against HEK293T;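 further: share of the cells with healthy nuclei that show this phenotype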
# Type: toxicity, cell-based
# SETUP_CONDITIONS: human, 48 h, 1 µM, compound concentration 1 uM, replicate 2
METRIC_NAME: Population Tubulin-Different-Phenotype (%)
In your response, put the unit directly after the numeric value.

## Task Name the reported Population Tubulin-Different-Phenotype (%) value associated with the molecule CC(Cc1ccc(O)c(O)c1)C(C)Cc1ccc(O)c(O)c1 (stereo not drawn) [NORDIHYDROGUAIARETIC ACID]
## Result 16%

## Task What would you report for `CC(C)[C@H](CO)Nc1nc(Nc2cccc(Cl)c2)c2ncn(C(C)C)c2n1` ?
## Result 26%

## Task Same question for `C[C@@H](Oc1cc(-n2cnc3ccc(CN4CCN(C)CC4)cc32)sc1C(N)=O)c1ccccc1C(F)(F)F` please.
## Result 76%

## Task Cool, now `Oc1cccc(-c2nc(N3CCOCC3)c3oc4ncccc4c3n2)c1`
## Result 88%

## Task // same read-out, input: `N#CCNC(=O)c1ccc(-c2ccnc(Nc3ccc(N4CCOCC4)cc3)n2)cc1`
## Result 20%

## Task Next molecule: CCCCCNC(=N)N/N=C/c1c[nH]c2ccc(OC)cc12.O=C(O)/C=C\C(=O)O [TEGASEROD MALEATE]
## Result 42%

## Task Try the molecule `C=CC(=O)Nc1cc(-n2c(=O)ccc3cnc4ccc(-c5ccc(NS(C)(=O)=O)cc5)cc4c32)ccc1C`
## Result 22%

## Task Also check `CCCCN(CC)c1nc(C)nc2c1c(C)cn2-c1c(C)cc(C)cc1C.Cl`
## Result 17%
